Assay: in vivo
Settings: rat, in vivo, iv, 1 mg/kg, Cmax
Peptide text beside a SMILES is read from it. * marks the point of attachment. X1 = CC(=O)N[C@H]1C(*)O[C@H](CO)[C@@H](O)[C@@H]1O
recorded-metric: Cmax (ng/mL)
Field: numeric (ng/mL). Do not append units.

Record CC(=O)N[C@H]1C(OC[C@H](NC(=O)[C@@H](NC(=O)[C@H](Cc2ccc(O)cc2)NC(=O)[C@@H](NC(=O)[C@H](CCC(N)=O)NC(=O)CN)[C@@H](C)OC2O[C@H](CO)[C@@H](O)[C@H](O)[C@H]2NC(C)=O)[C@@H](C)O)C(=O)NCC(=O)O)O[C@H](CO)[C@@H](O)[C@@H]1O (stereo partly shown) [SIPI-G9, GQT(Glc)YTS(Glc)G] (H-GQT(X1)YTS(X1)G-OH) , field Cmax: 714

----------
Assay: Plasma drug concentrations and pharmacokinetics after a single intravenous or subcutaneous injection of SIPI-G9 in SD rats
Details: male, SD, rat, plasma, iv, 1 mg/kg, Plasma G-9 concentration, Mean, SIPI-G9 1 mg/kg i.v., SD rats, 60 min, n=3
Procedure: Routes: single back subcutaneous injection and single tail vein injection; Orbital blood was collected at different time points before and after administration. […] High concentration samples were diluted with blank plasma. […] Pharmacokinetic parameters were calculated using the non-compartmental model of DAS 2.0 software. Both Cmax and Tmax are measured values; AUC, T½, CL and Vz are calculated by DAS 2.0.
Peptide text beside a SMILES is read from it. * marks the point of attachment. X1 = CC(=O)N[C@H]1C(*)O[C@H](CO)[C@@H](O)[C@@H]1O
recorded-metric: level at 1 h (ng/mL)
Give the number; ng/mL is assumed, so skip it.

Looking up CC(=O)N[C@H]1C(OC[C@H](NC(=O)[C@@H](NC(=O)[C@H](Cc2ccc(O)cc2)NC(=O)[C@@H](NC(=O)[C@H](CCC(N)=O)NC(=O)CN)[C@@H](C)OC2O[C@H](CO)[C@@H](O)[C@H](O)[C@H]2NC(C)=O)[C@@H](C)O)C(=O)NCC(=O)O)O[C@H](CO)[C@@H](O)[C@@H]1O (stereo partly shown) [SIPI-G9, GQT(Glc)YTS(Glc)G] (H-GQT(X1)YTS(X1)G-OH) , I found its level at 1 h recorded as 1.51

----------
Test: Plasma drug concentrations and pharmacokinetics after a single intravenous or subcutaneous injection of SIPI-G9 in SD rats
Conditions: rat, in vivo, iv, 1 mg/kg, T1/2, Mean, SIPI-G9 1 mg/kg i.v., SD rats, n=3
Peptide text beside a SMILES is read from it. * marks the point of attachment. X1 = CC(=O)N[C@H]1C(*)O[C@H](CO)[C@@H](O)[C@@H]1O
recorded-metric: half-life (min)
Could you give me the number in min? Just the number is fine.

half-life recorded for this molecule, CC(=O)N[C@H]1C(OC[C@H](NC(=O)[C@@H](NC(=O)[C@H](Cc2ccc(O)cc2)NC(=O)[C@@H](NC(=O)[C@H](CCC(N)=O)NC(=O)CN)[C@@H](C)OC2O[C@H](CO)[C@@H](O)[C@H](O)[C@H]2NC(C)=O)[C@@H](C)O)C(=O)NCC(=O)O)O[C@H](CO)[C@@H](O)[C@@H]1O (stereo partly shown) [SIPI-G9, GQT(Glc)YTS(Glc)G] (H-GQT(X1)YTS(X1)G-OH) , is 8.2

----------
recovery listing for selected molecules.
Test: Stability of each 7-peptide compound in rat whole blood
Format: in vitro ADME
Settings: rat whole blood, 37° C., 1000 ng/mL, incubation time 30 min; read-out: Recovery rate (%) M±SD
Square brackets hold non-standard residues; d marks the D form. Peptide text beside a SMILES is read from it. * marks the point of attachment. X1 = CC(=O)N[C@H]1C(*)O[C@H](CO)[C@@H](O)[C@@H]1O
Note: unit % is implicit; provide only the numeric part.

Observe how each entry below is paired with its result.
>>> endpoint_result("C[C@H](O)[C@@H](NC(=O)[C@@H](Cc1ccc(O)cc1)NC(=O)[C@H](NC(=O)[C@@H](CO)NC(=O)CN)[C@H](C)O)C(=O)N[C@H](CCC(N)=O)C(=O)NCC(=O)O [SIPI-D00, GSTYTQG] (H-G[dS][dT][dY][dT][dQ]G-OH)")
97.9
>>> endpoint_result("CC(=O)N[C@H]1C(O[C@H](C)[C@H](NC(=O)[C@H](Cc2ccc(O)cc2)NC(=O)[C@@H](NC(=O)[C@H](CCC(N)=O)NC(=O)CN)[C@@H](C)OC2O[C@H](CO)[C@@H](O)[C@H](O)[C@H]2NC(C)=O)C(=O)N[C@@H](CO)C(=O)NCC(=O)O)O[C@H](CO)[C@@H](O)[C@@H]1O (some centres unmarked) [SIPI-G8, GQT(Glc)YT(Glc)SG] (H-GQT(X1)YT(X1)SG-OH)")
71.2
>>> endpoint_result("CC(=O)N[C@H]1C(OC[C@H](NC(=O)[C@@H](NC(=O)[C@H](Cc2ccc(O)cc2)NC(=O)[C@@H](NC(=O)[C@H](CCC(N)=O)NC(=O)CN)[C@@H](C)OC2O[C@H](CO)[C@@H](O)[C@H](O)[C@H]2NC(C)=O)[C@@H](C)O)C(=O)NCC(=O)O)O[C@H](CO)[C@@H](O)[C@@H]1O (some centres unmarked) [SIPI-G9, GQT(Glc)YTS(Glc)G] (H-GQT(X1)YTS(X1)G-OH)")
95.9
>>> endpoint_result("CC(=O)N[C@H]1C(OC[C@H](NC(=O)[C@@H](NC(=O)[C@H](Cc2ccc(O)cc2)NC(=O)[C@@H](NC(=O)[C@H](CCC(N)=O)NC(=O)CN)[C@@H](C)OC2O[C@H](CO)[C@@H](O)[C@H](O)[C@H]2NC(C)=O)[C@@H](C)OC2O[C@H](CO)[C@@H](O)[C@H](O)[C@H]2NC(C)=O)C(=O)NCC(=O)O)O[C@H](CO)[C@@H](O)[C@@H]1O (some centres unmarked) [SIPI-G4, GQT(Glc)YT(Glc)S(Glc)G] (H-GQT(X1)YT(X1)S(X1)G-OH)")
77.7

Field recovery (entry CC(=O)N[C@H]1C(O[C@H](C)[C@H](NC(=O)[C@H](CCC(N)=O)NC(=O)CN)C(=O)N[C@@H](Cc2ccc(O)cc2)C(=O)N[C@H](C(=O)N[C@@H](CO)C(=O)NCC(=O)O)[C@@H](C)O)O[C@H](CO)[C@@H](O)[C@@H]1O (some centres unmarked) [SIPI-G6, GQT(Glc)YTSG] (H-GQT(X1)YTSG-OH) ) reads 59.7

----------
Assay: in vivo
Conditions: rat, in vivo, iv, 1 mg/kg, CL
Peptide text beside a SMILES is read from it. * marks the point of attachment. X1 = CC(=O)N[C@H]1C(*)O[C@H](CO)[C@@H](O)[C@@H]1O
recorded-metric: clearance (mL/min/kg)
# output: bare number, implied unit mL/min/kg

Notebook: CC(=O)N[C@H]1C(OC[C@H](NC(=O)[C@@H](NC(=O)[C@H](Cc2ccc(O)cc2)NC(=O)[C@@H](NC(=O)[C@H](CCC(N)=O)NC(=O)CN)[C@@H](C)OC2O[C@H](CO)[C@@H](O)[C@H](O)[C@H]2NC(C)=O)[C@@H](C)O)C(=O)NCC(=O)O)O[C@H](CO)[C@@H](O)[C@@H]1O (stereo partly shown) [SIPI-G9, GQT(Glc)YTS(Glc)G] (H-GQT(X1)YTS(X1)G-OH) , clearance read as 151

----------
Assay: in vivo
Conditions: male, SD, rat, in vivo, iv, 1 mg/kg
Peptide text beside a SMILES is read from it. * marks the point of attachment. X1 = CC(=O)N[C@H]1C(*)O[C@H](CO)[C@@H](O)[C@@H]1O
recorded-metric: AUC(0-t) (ng·h/mL)
Write the answer as a number in ng·h/mL, unit excluded.

The compound listed as CC(=O)N[C@H]1C(OC[C@H](NC(=O)[C@@H](NC(=O)[C@H](Cc2ccc(O)cc2)NC(=O)[C@@H](NC(=O)[C@H](CCC(N)=O)NC(=O)CN)[C@@H](C)OC2O[C@H](CO)[C@@H](O)[C@H](O)[C@H]2NC(C)=O)[C@@H](C)O)C(=O)NCC(=O)O)O[C@H](CO)[C@@H](O)[C@@H]1O (stereo partly shown) [SIPI-G9, GQT(Glc)YTS(Glc)G] (H-GQT(X1)YTS(X1)G-OH) has a reported AUC(0-t) of 114

----------
Assay: Plasma drug concentrations and pharmacokinetics after a single subcutaneous injection of SP peptide or SIPI-D00 peptide in SD rats
Format: in vivo
Conditions: rat, in vivo, sc, 5 mg/kg
Square brackets hold non-standard residues; d marks the D form. Peptide text beside a SMILES is read from it.
recorded-metric: Cmax
Dear colleague, please send the value followed by its unit.

Measured Cmax, C[C@H](O)[C@@H](NC(=O)[C@@H](Cc1ccc(O)cc1)NC(=O)[C@H](NC(=O)[C@@H](CO)NC(=O)CN)[C@H](C)O)C(=O)N[C@H](CCC(N)=O)C(=O)NCC(=O)O [SIPI-D00, GSTYTQG] (H-G[dS][dT][dY][dT][dQ]G-OH) : 5910 ng/mL
